biological target: HDAC8 (Homo sapiens, UniProt Q9BY41); construct: purified commercial enzyme from BPS Bioscience; assay: microfluidic mobility shift (LabChip), FAM-acetylated peptide substrate; format: biochemical; conditions: read-out: HDAC IC50 (μM) without preincubation / HDAC4
Sequence (Q9BY41 whole entry): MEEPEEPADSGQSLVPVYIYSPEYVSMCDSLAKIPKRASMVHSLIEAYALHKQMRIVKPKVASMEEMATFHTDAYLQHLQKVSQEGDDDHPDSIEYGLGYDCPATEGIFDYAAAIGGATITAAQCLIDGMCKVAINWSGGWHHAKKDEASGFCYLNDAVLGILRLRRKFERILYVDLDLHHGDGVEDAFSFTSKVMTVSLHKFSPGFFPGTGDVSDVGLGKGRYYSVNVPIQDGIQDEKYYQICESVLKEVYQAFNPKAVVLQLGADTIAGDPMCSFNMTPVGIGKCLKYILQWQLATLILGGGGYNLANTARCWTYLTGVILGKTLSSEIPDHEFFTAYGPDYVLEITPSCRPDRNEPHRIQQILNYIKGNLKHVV
Measured attribute: IC50

Ask | Identify the measured IC50 of CC(=O)Nc1ccc(C(=O)Nc2ccc(F)cc2N)cc1 [BRD3308] for HDAC8 (Homo sapiens, UniProt Q9BY41).
Reply | > 33 µM

----------
molecular target: HDAC1 (Homo sapiens, UniProt Q13547); construct: purified commercial enzyme from BPS Bioscience; test: microfluidic mobility shift (LabChip), FAM-acetylated peptide substrate; assay type: biochemical; conditions: without preincubation; […] min, room temperature, pH […] substrate; read-out: HDAC IC50 (μM) without preincubation / HDAC1
Measured attribute: IC50 (µM)
Please state the figure in µM; there is no need to write the unit.

Ask | Request the reported IC50 associated with CC(=O)Nc1ccc(C(=O)Nc2ccc(F)cc2N)cc1
Reply | 1.26

----------
target: HDAC3 (Homo sapiens); construct: purified commercial enzyme from BPS Bioscience; with Nuclear receptor corepressor 2; assay: microfluidic mobility shift (LabChip), FAM-acetylated peptide substrate; assay type: biochemical; conditions: without preincubation; […] min, room temperature, pH […] substrate; read-out: HDAC IC50 (μM) without preincubation / HDAC3
Sequence (O15379 whole entry): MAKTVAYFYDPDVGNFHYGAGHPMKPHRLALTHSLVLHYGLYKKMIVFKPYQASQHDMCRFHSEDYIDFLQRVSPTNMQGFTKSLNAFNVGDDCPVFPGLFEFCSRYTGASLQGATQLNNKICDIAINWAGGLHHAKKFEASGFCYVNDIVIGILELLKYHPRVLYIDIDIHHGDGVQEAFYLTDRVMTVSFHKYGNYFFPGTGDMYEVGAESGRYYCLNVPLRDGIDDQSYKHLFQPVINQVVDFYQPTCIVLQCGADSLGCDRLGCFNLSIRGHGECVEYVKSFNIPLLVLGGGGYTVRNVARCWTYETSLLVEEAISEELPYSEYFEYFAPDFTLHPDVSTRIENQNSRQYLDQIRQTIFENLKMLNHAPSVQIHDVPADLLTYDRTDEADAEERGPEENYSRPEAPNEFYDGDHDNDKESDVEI
Sequence (Q9Y618 whole entry partner): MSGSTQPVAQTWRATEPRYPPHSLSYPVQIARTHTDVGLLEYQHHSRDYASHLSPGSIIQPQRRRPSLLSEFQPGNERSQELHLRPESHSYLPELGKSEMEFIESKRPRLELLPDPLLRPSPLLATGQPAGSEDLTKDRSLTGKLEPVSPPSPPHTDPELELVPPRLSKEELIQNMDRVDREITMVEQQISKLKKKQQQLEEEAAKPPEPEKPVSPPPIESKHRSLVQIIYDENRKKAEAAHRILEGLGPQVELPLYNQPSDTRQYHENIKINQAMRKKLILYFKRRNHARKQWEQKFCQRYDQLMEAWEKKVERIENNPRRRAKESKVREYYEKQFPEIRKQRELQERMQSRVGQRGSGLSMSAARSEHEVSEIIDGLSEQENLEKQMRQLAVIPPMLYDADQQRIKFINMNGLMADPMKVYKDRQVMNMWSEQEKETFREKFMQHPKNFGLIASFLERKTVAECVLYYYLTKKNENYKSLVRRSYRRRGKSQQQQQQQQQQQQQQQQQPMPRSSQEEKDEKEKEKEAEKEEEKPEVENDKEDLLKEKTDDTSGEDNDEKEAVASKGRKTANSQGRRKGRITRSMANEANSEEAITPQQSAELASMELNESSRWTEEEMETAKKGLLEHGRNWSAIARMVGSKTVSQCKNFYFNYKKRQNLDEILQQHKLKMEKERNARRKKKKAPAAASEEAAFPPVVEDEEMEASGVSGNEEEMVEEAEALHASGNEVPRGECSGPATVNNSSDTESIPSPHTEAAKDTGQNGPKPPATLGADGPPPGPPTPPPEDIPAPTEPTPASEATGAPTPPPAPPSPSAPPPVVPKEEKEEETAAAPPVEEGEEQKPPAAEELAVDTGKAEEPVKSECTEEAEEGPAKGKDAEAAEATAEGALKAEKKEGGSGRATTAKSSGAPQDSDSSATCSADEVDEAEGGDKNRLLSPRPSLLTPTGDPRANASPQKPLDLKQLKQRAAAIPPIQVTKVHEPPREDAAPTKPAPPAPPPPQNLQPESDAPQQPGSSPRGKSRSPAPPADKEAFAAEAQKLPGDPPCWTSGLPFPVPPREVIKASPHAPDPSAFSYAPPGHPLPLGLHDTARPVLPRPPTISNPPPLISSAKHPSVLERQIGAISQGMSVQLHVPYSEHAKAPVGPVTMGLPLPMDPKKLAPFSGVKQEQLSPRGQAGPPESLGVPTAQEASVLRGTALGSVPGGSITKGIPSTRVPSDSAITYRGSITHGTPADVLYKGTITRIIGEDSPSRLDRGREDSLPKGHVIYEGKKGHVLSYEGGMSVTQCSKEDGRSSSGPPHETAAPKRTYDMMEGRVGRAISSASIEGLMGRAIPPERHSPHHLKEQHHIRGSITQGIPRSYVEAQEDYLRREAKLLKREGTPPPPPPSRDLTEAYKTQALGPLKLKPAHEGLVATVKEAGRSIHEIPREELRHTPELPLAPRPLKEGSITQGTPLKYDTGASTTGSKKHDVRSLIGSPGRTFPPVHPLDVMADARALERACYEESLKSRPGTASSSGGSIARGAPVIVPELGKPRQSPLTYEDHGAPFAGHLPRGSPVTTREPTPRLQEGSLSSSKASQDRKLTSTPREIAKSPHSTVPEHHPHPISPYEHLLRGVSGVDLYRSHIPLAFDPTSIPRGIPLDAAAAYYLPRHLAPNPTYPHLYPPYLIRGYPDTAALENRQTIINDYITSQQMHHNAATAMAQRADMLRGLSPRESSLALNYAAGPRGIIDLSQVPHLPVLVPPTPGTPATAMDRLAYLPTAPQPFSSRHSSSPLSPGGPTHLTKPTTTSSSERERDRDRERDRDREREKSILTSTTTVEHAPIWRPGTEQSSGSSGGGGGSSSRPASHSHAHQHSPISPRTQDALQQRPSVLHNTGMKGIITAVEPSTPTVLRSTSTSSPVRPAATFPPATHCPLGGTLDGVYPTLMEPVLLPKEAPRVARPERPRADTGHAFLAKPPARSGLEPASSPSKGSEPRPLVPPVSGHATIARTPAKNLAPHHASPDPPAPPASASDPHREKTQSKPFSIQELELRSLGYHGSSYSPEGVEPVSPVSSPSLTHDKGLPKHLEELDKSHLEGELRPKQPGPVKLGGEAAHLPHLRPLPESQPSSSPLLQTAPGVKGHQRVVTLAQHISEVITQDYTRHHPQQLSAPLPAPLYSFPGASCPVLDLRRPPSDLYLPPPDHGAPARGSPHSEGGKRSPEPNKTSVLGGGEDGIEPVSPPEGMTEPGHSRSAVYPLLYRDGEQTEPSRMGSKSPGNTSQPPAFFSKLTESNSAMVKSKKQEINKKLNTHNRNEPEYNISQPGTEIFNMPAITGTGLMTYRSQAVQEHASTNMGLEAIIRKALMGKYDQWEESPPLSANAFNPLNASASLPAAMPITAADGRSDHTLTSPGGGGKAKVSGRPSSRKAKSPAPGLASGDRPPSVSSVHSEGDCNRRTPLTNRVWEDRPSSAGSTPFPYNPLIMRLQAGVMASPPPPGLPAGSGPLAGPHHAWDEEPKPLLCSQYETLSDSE
Measured attribute: IC50 (µM)
Please state the figure in µM; there is no need to write the unit.

Ask | Request the reported IC50 associated with CC(=O)Nc1ccc(C(=O)Nc2ccc(F)cc2N)cc1
Reply | 0.054

----------
biological target: HDAC2 (Homo sapiens); construct: purified commercial enzyme from BPS Bioscience; experiment: microfluidic mobility shift (LabChip), FAM-acetylated peptide substrate; assay type: biochemical; conditions: without preincubation; […] min, room temperature, pH […] substrate; read-out: HDAC IC50 (μM) without preincubation / HDAC2
Measured attribute: IC50

Ask | Request the reported IC50 associated with CC(=O)Nc1ccc(C(=O)Nc2ccc(F)cc2N)cc1 [BRD3308]
Reply | 1.34 µM

----------
target: HDAC4 (Homo sapiens, UniProt P56524); construct: purified commercial enzyme from BPS Bioscience; test: microfluidic mobility shift (LabChip), FAM-acetylated peptide substrate; format: biochemical; conditions: read-out: HDAC IC50 (μM) without preincubation / HDAC4
Measured attribute: IC50

Ask | Request the reported IC50 associated with CC(=O)Nc1ccc(C(=O)Nc2ccc(F)cc2N)cc1
Reply | > 33 µM

----------
Target: HDAC5 (Homo sapiens)
Construct: purified commercial enzyme from BPS Bioscience
Sequence (Q9UQL6 whole entry): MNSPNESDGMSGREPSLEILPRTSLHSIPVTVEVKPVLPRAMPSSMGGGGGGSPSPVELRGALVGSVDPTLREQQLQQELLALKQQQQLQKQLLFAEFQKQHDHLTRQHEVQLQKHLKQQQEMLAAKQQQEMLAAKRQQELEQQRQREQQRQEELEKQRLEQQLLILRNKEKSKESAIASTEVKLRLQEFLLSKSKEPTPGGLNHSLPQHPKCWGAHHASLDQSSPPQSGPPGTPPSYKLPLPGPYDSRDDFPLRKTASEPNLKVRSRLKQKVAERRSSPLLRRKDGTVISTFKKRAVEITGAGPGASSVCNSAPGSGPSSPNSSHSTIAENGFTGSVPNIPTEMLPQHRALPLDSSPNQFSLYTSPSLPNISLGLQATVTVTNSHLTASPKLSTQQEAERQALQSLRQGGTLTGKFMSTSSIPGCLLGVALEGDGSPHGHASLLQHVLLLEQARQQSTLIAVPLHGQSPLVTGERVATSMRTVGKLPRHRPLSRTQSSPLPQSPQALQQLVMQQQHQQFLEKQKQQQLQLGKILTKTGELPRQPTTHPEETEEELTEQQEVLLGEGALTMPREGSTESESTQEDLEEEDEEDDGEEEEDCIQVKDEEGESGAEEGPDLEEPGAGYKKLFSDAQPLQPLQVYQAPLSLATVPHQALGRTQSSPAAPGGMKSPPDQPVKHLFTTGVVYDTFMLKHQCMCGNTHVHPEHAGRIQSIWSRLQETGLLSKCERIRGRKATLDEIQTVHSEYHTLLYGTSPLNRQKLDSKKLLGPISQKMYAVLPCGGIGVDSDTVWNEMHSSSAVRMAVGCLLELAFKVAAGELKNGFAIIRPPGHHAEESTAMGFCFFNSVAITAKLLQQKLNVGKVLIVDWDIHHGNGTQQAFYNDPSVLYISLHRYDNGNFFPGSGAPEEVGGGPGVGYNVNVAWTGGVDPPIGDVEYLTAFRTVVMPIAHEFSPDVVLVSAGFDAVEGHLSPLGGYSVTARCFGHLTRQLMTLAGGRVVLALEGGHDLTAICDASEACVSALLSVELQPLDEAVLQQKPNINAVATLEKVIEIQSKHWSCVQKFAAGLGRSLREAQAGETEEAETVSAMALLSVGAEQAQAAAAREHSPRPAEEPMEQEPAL
Test: microfluidic mobility shift (LabChip), FAM-acetylated peptide substrate
Type: biochemical
Details: read-out: HDAC IC50 (μM) without preincubation / HDAC5
Source text: microfluidic mobility shift (LabChip), FAM-acetylated peptide substrate on HDAC5
Measured attribute: IC50

Ask | Request the reported IC50 associated with CC(=O)Nc1ccc(C(=O)Nc2ccc(F)cc2N)cc1
Reply | > 33 µM

----------
molecular target: HDAC7 (Homo sapiens); construct: purified commercial enzyme from BPS Bioscience; test: microfluidic mobility shift (LabChip), FAM-acetylated peptide substrate; type: biochemical; conditions: read-out: HDAC IC50 (μM) without preincubation / HDAC4
Sequence (Q8WUI4 518-952 limits assumed): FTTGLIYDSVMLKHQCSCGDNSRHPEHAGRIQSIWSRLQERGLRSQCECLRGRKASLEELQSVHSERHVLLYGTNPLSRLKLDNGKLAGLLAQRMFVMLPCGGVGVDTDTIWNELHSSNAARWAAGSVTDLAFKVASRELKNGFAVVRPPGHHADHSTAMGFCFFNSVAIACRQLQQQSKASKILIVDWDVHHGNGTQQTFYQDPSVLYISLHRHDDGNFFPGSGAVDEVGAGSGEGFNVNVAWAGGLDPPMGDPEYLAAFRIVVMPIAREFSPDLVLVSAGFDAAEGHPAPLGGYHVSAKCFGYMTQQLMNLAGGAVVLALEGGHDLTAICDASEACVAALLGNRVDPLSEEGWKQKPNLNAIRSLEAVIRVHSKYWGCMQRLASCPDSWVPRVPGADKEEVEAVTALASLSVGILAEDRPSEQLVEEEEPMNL
Measured attribute: IC50

Ask | Request the reported IC50 associated with CC(=O)Nc1ccc(C(=O)Nc2ccc(F)cc2N)cc1
Reply | > 33 µM

Data provenance: paper PMC4138023
